# assay system: APOL1
# condition description: ASO, A431, 2 µM
After the bases stand the sugars from the 5' end (letter, count) and the backbone: PS all phosphorothioate, else s phosphorothioate and o phosphodiester by linkage. Methylation of C is not given here. e = 2'-O-(2-methoxyethyl) (MOE); k = constrained ethyl (cEt); d = 2'-deoxy (DNA)
Recorded target mRNA inhibition values for a group of sequences are listed next.

>  <sequence input>
TTCTCATGGTACAGGA (sugars kkkddddkekekdddd, PS)

>  <target mRNA inhibition>
54%

$$$$
>  <sequence input>
TCTATTAGAGGGCTAG (sugars kkdddddkekeddddd, PS)

>  <target mRNA inhibition>
72%

$$$$
>  <sequence input>
GAAGCTTTAAACTCAG (sugars kkddddkekekddddd, PS)

>  <target mRNA inhibition>
84%

$$$$
>  <sequence input>
GGGAATTATGGAATTG (sugars k2 d4 e3 k2 d5, PS)

>  <target mRNA inhibition>
86%

$$$$
>  <sequence input>
TTCAGAATTTCCACTA (sugars kdddddkekekddddd, PS)

>  <target mRNA inhibition>
87%

$$$$
>  <sequence input>
CACATCATTGGGTTAT (sugars kkddddkekekkdddd, PS)

>  <target mRNA inhibition>
34%

$$$$

Data origin, for the record: the OligoGym collection
